Listing of entries alongside the reported Creatinine.
- assay-explanation: Renal or kidney function test
- Format: in vivo
- experimental-conditions: mice, 10 mg/kg, Before
assay-endpoint: Creatinine (mg/dL)

compound	recorded-measurement
Cc1ccc(NC(=O)CNC(=O)C(C)NS(=O)(=O)c2ccccc2)cc1 (stereo not shown) [Compound 7e]	0.3
Cc1ccc(S(=O)(=O)NC(C)C(=O)NCC(=O)Nc2cccc(F)c2)cc1 (stereo not shown) [Compound 7j]	0.4
CC(NS(=O)(=O)c1ccccc1)C(=O)NCC(=O)Nc1cccc(F)c1 (stereo not shown) [Compound 7c]	0.3
Cc1ccc(S(=O)(=O)NC(C)C(=O)NCC(=O)Nc2cccc(Cl)c2)cc1 (stereo not shown) [Compound 7h]	0.3

###

- assay-explanation: Liver function tests
- Format: in vivo
- experimental-conditions: mice, 10 mg/kg, After
Below: a set of entries, each annotated with reported ALT.

compound	ALT
Cc1ccc(S(=O)(=O)NC(C)C(=O)NCC(=O)Nc2cccc(F)c2)cc1 (stereo not shown)	25.5 µ/L
Cc1ccc(NC(=O)CNC(=O)C(C)NS(=O)(=O)c2ccccc2)cc1 (stereo not shown)	22.0 µ/L
Cc1ccc(S(=O)(=O)NC(C)C(=O)NCC(=O)Nc2cccc(Cl)c2)cc1 (stereo not shown)	24.5 µ/L
CC(NS(=O)(=O)c1ccccc1)C(=O)NCC(=O)Nc1cccc(F)c1 (stereo not shown)	23.5 µ/L

###

- Test system: E. coli
- assay-explanation: Antimicrobial MIC, agar cup diffusion
- Format: cell-based
- experimental-conditions: Escherichia coli, read-out: MIC (minimum inhibitory concentration)
Non-standard residues stand in square brackets, D forms with d. Residues, ends and D or L forms follow the SMILES beside them. ξ: configuration not given here. *: point of attachment. Tos = Cc1ccc(S(=O)(=O)*)cc1; βNA = c1ccc2cc(N*)ccc2c1; ξA = CC(N)C(=O)O
assay-endpoint: MIC (µg/mL)

molecule	tgt	assay-endpoint	output-unit	recorded-measurement
CC(NS(=O)(=O)c1ccccc1)C(=O)NCC(=O)Nc1cccc(Cl)c1 (stereo not shown)	E. coli	MIC	µg/mL	489
Cc1ccc(S(=O)(=O)NC(C)C(=O)NCC(=O)Nc2ccc3ccccc3c2)cc1 (stereo not shown) [Compound 7n] (Tos-[ξA]-Gly-βNA)	E. coli	MIC	µg/mL	123
CC(NS(=O)(=O)c1ccccc1)C(=O)NCC(=O)Nc1ccccc1 (stereo not shown)	E. coli	MIC	µg/mL	131
Cc1ccc(S(=O)(=O)NC(C)C(=O)NCC(=O)Nc2cccc(F)c2)cc1 (stereo not shown)	E. coli	MIC	µg/mL	275

###

- assay-explanation: Liver function tests
- Assay type: in vivo
- experimental-conditions: mice, 10 mg/kg, After
Quick list: Bilirubin per entry.

compound	Bilirubin / mg/dL
Cc1ccc(S(=O)(=O)NC(C)C(=O)NCC(=O)Nc2cccc(F)c2)cc1 (stereo not shown)	0.2
Cc1ccc(S(=O)(=O)NC(C)C(=O)NCC(=O)Nc2cccc(Cl)c2)cc1 (stereo not shown)	0.3
Cc1ccc(NC(=O)CNC(=O)C(C)NS(=O)(=O)c2ccccc2)cc1 (stereo not shown)	0.2
CC(NS(=O)(=O)c1ccccc1)C(=O)NCC(=O)Nc1cccc(F)c1 (stereo not shown)	0.5

###

Items are presented alongside their recorded melting point.
Non-standard residues stand in square brackets, D forms with d. Residues, ends and D or L forms follow the SMILES beside them. ξ: configuration not given here. *: point of attachment. Tos = Cc1ccc(S(=O)(=O)*)cc1; βNA = c1ccc2cc(N*)ccc2c1; ξA = CC(N)C(=O)O
assay-endpoint: melting point

compound	recorded-measurement
Cc1ccc(S(=O)(=O)NC(C)C(=O)NCC(=O)Nc2cccc(Cl)c2)cc1 (stereo not shown)	120 to 122 °C
Cc1ccc(NC(=O)CNC(=O)C(C)NS(=O)(=O)c2ccc(C)cc2)cc1 (stereo not shown)	120 to 122 °C
Cc1ccc(S(=O)(=O)NC(C)C(=O)NCC(=O)Nc2ccc3ccccc3c2)cc1 (stereo not shown) [Compound 7n] (Tos-[ξA]-Gly-βNA)	174 to 176 °C
CC(NS(=O)(=O)c1ccccc1)C(=O)NCC(=O)Nc1cccc(F)c1 (stereo not shown)	125 to 127 °C
CC(NS(=O)(=O)c1ccccc1)C(=O)NCC(=O)Nc1ccc(Cl)cc1 (stereo not shown)	140 to 142 °C
CC(NS(=O)(=O)c1ccccc1)C(=O)NCC(=O)Nc1ccc2ccccc2c1 (stereo not shown)	170 to 172 °C
Cc1ccc(NC(=O)CNC(=O)C(C)NS(=O)(=O)c2ccccc2)cc1 (stereo not shown)	160 to 162 °C

###

- assay-explanation: Liver function tests
- Type: in vivo
- experimental-conditions: mice, 10 mg/kg, After
Item-by-item account of AST
assay-endpoint: AST

molecule	recorded-measurement
Cc1ccc(S(=O)(=O)NC(C)C(=O)NCC(=O)Nc2cccc(Cl)c2)cc1 (stereo not shown) [Compound 7h]	69.5 µ/L
CC(NS(=O)(=O)c1ccccc1)C(=O)NCC(=O)Nc1cccc(F)c1 (stereo not shown) [Compound 7c]	61.5 µ/L
Cc1ccc(NC(=O)CNC(=O)C(C)NS(=O)(=O)c2ccccc2)cc1 (stereo not shown) [Compound 7e]	60.5 µ/L
Cc1ccc(S(=O)(=O)NC(C)C(=O)NCC(=O)Nc2cccc(F)c2)cc1 (stereo not shown) [Compound 7j]	60.0 µ/L

###

Item-by-item account of RBC
- assay-explanation: Haematological analysis
- Type: in vivo, mice
- experimental-conditions: Before treatment

molecule	RBC
Cc1ccc(S(=O)(=O)NC(C)C(=O)NCC(=O)Nc2cccc(F)c2)cc1 (stereo not shown)	7.1 × 10^6 mm^3
Cc1ccc(NC(=O)CNC(=O)C(C)NS(=O)(=O)c2ccccc2)cc1 (stereo not shown)	6.85 × 10^6 mm^3
CC(NS(=O)(=O)c1ccccc1)C(=O)NCC(=O)Nc1cccc(F)c1 (stereo not shown)	7.5 × 10^6 mm^3
Cc1ccc(S(=O)(=O)NC(C)C(=O)NCC(=O)Nc2cccc(Cl)c2)cc1 (stereo not shown)	7.3 × 10^6 mm^3
